The measured values listed here are drawn from PubChem BioAssay (NCI).

- Tested on: OVCAR-3 ovarian
- PROTOCOL: NCI-60 one-dose screen, 48 h
- CONDITION CONTEXT: 10 µM unless noted
The panel holds about 83,000 compounds, 20% with a hit somewhere; the sample as a whole holds those more often. Activity calls are given as the source filed them. How the source made its calls: active means growth percent below 10; inactive means the rest.
Classes used: active, inactive

• NS(=O)(=O)c1cc(C2(O)NC(=O)c3ccccc32)ccc1Cl (stereo not given) = inactive
• CCOC(=O)c1sc(NC(=O)COc2cccc(/C=C3\CCc4cc(OC)ccc4C3=O)c2)nc1C = inactive
• CCCCN1c2nc3ccccc3cc2Sc2cc3ccccc3nc21 = inactive
• COC(=O)C1=CCC(n2cnc3c(N)ncnc32)O1 (stereo not given) = inactive
• Nc1c(C(=O)Nc2cccc(Cl)c2)sc2nc3c(cc12)C(O)CCC3 (stereo not given) = active
• O=C(Oc1ccccc1)C(Br)C(Br)c1ccccc1 (stereo not given) = active
• CCCCCc1c(C)[nH]c(/C=C2\N=C(c3ccc[nH]3)C=C2OCc2ccccc2)c1C = active
• O=C(COc1cccc(/C=C2\Cc3ccccc3C2=O)c1)c1ccc(Cl)cc1 = inactive
• COc1ccc(-c2cc(-c3cccnc3)nc3sc(C(=O)Nc4ccccc4)c(N)c23)cc1OC = inactive
• Cc1cc(=O)oc2cc(OCCn3c(C)nn(-c4ccc(Cl)cc4)c3=O)ccc12 = inactive
